# Test system: MOLM14 cells
# METHOD: Proliferation assay, spheroid-like growth, MOLM14 (MLL-AF9 rearranged)
# Format: cell-based, human
# CONDITION INFO: Homo sapiens, MOLM-14, 192 h, 8 days, confluence as measure of spheroid size, read-out: spheroid assay_OneTime MOLM14 IC50
Checkbox rule: IC50 lower than 10 nM = rule met; IC50 not lower than 10 nM = rule not met.

Reference set (6 entries):
>  <MOLECULE>
CC(C)[C@@H]([C@H]1C[C@@H](N2CC[C@H](C(=O)N(C)C)C2)C1)N1CC2(CCN(c3ncnnc3Oc3ccc(F)cc3-c3cnncc3C3CC3)C2)C1 (single isomer, unassigned) [Compound 116]

>  <LABEL VALUE>
rule met

$$$$
>  <MOLECULE>
CC(C)[C@H]([C@H]1C[C@H](N2CCC[C@H](C(=O)N(C)C)C2)C1)N1CC2(CCN(c3ncnnc3Oc3ccc(F)cc3-c3cncnc3C3CC3)C2)C1 (single isomer, unassigned) [Compound 52]

>  <LABEL VALUE>
rule not met

$$$$
>  <MOLECULE>
CC(C)[C@H]([C@H]1C[C@@H](N2CC[C@](C)(O)C2)C1)N1CC2(CCN(c3ncnnc3Oc3ccc(F)cc3-c3cncnc3C3CC3)C2)C1 [Compound 12]

>  <LABEL VALUE>
rule met

$$$$
>  <MOLECULE>
CC(C)[C@H]([C@H]1C[C@@H](N2CCC3(COC3)C2)C1)N1CC2(CCN(c3ncnnc3Oc3ccc(F)cc3-c3cncnc3C3CC3)C2)C1 (single isomer, unassigned) [Compound 325]

>  <LABEL VALUE>
rule met

$$$$
>  <MOLECULE>
CC(C)[C@H]([C@H]1C[C@H](N2CC3(COC3)C2)C1)N1CC2(CCN(c3ncnnc3Oc3ccc(F)cc3-c3ncc(C#N)cc3C3CC3)C2)C1 (single isomer, unassigned) [Compound 95]

>  <LABEL VALUE>
rule not met

$$$$
>  <MOLECULE>
CC(C)[C@H]([C@H]1C[C@@H](N2CC[C@H](O)C23CC3)C1)N1CC2(CCN(c3ncnnc3Oc3ccc(F)cc3-c3cncnc3C3CC3)C2)C1 (single isomer, unassigned) [Compound 41]

>  <LABEL VALUE>
rule not met

$$$$

QUERY: Quick check: does CC(C)[C@H]([C@H]1C[C@H](N2CCC(F)C(O)C2)C1)N1CC2(CCN(c3ncnnc3Oc3ccc(F)cc3-c3cncnc3C3CC3)C2)C1 (single isomer, unassigned) [Compound 31] have IC50 under 10 nM?
RESULT: rule met

QUERY: Subsequent entry: CC(C)[C@H]([C@H]1C[C@@H](N2CCC3(CCO3)CC2)C1)N1CC2(CCN(c3ncnnc3Oc3ccc(F)cc3-c3nnccc3C3CC3)C2)C1 (single isomer, unassigned) [Compound 252]
RESULT: rule not met
